test: chemical genetic growth profiling, strain panel (AID 1159580);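 further: tested at 20 µM; growth read once vehicle control cultures reached saturation at 30 °C; 1 = growth at the plate median or of vehicle wells; lower values mean less growth of the strain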; settings: S. cerevisiae deletion strains, growth OD, locus YMR078C, strain ctf18, active compounds read low
Hit rate of the full screen: of about 5,500 compounds, about 2,000 (36%) were called active. Not shown: some 18% with an inconclusive outcome. The list shows a part of the results.
Measured metric: normalized growth

>>> observed_result("Cc1cc(C(C)(C)CC(C)(C)C)ccc1OCCOCC[N+](C)(C)Cc1ccccc1")
0.0671
>>> observed_result("Cc1cc(=O)c2c(O)c(C)c(O)cc2o1")
0.983
>>> observed_result("CCCCCCCCCCCCC[N+](C)(C)Cc1ccccc1")
0.0768
>>> observed_result("C[N+](C)(C)CC(=O)[O-]")
0.981
>>> observed_result("NC(N)=Nc1nc(CSCCC(N)=NS(N)(=O)=O)cs1")
1.02
>>> observed_result("Cn1cc[nH]c1=S")
0.96
>>> observed_result("CCC1(C)CC(=O)NC1=O (stereo not drawn)")
1.02
>>> observed_result("CC1(O)/C=C/C=C(\\CO)C2CC(C)(C)C2(O)CC1 (stereo not drawn)")
1.01
>>> observed_result("COc1ccc(C[C@H]2NC[C@H](O)[C@H]2OC(C)=O)cc1")
1.02
>>> observed_result("Cc1cc(=O)c2c(O)cc(O)c(C)c2o1")
0.989
>>> observed_result("COc1ccc(C(=O)c2ccccc2O)c(O)c1")
0.913
>>> observed_result("CCC(C(=O)O)c1ccccc1 (stereo not drawn)")
0.996
>>> observed_result("OCCN(CCO)c1nc(N2CCCCC2)c2nc(N(CCO)CCO)nc(N3CCCCC3)c2n1")
0.994
>>> observed_result("CO[C@H]1C[C@H](O[C@H]2[C@H](C)[C@@H](OC3O[C@H](C)C[C@H](N(C)C)[C@H]3O)[C@@H](C)C[C@]3(CO3)C(=O)[C@H](C)[C@@H](O)[C@@H](C)[C@@H](C)OC(=O)[C@@H]2C)O[C@@H](C)[C@@H]1O (stereo partly drawn)")
0.996
>>> observed_result("COc1ccc2cc1Oc1ccc(cc1)C[C@H]1c3cc(c(OC)cc3CCN1C)Oc1c(OC)c(OC)cc3c1[C@H](C2)N(C)CC3")
1.02
>>> observed_result("CCOC(=O)/C=C(\\C)OP(=O)(OC)OC")
0.999
>>> observed_result("O[C@H]1C=C2CCN3Cc4cc5c(cc4C(C23)[C@@H]1O)OCO5 (stereo partly drawn)")
0.713
>>> observed_result("C=CC1=C(C(=O)O)N2C(=O)[C@@H](NC(=O)/C(=N/O)c3csc(N)n3)[C@H]2SC1")
0.989
>>> observed_result("C=C(C)/C=C1/C=CC(=O)C(C)=C1")
0.0861
>>> observed_result("CN1Cc2c(ccc3c2OCO3)C2C(O)Cc3cc4c(cc3C21)OCO4 (stereo not drawn)")
1.01
>>> observed_result("CN1C2CC3C[C@H]1C(O3)C2O (stereo partly drawn)")
1.03
>>> observed_result("CCc1cccc(C)c1N(C(=O)CCl)C(C)COC (stereo not drawn)")
1.02
>>> observed_result("Nc1nc2[nH]c(=O)c(=O)[nH]c2c(=O)[nH]1")
1

----------
assay: chemical genetic growth profiling, strain panel (AID 1159580);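 further: tested at 20 µM; growth read once vehicle control cultures reached saturation at 30 °C; 1 = growth at the plate median or of vehicle wells; lower values mean less growth of the strain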; details: S. cerevisiae deletion strains, growth OD, locus YNL298W, strain CLA4, active compounds read low
About 2,000 (36%) of roughly 5,500 compounds were called active. Another 18% or so got no clear call; they are omitted. Some of the results follow.
Reported normalized growth values are given for each entry in this list.
Measured metric: normalized growth

>>> observed_result("CCC(C(N)=O)c1ccccc1 (configuration not stated)")
1.01
>>> observed_result("COc1cc(O)c(C(=O)c2ccccc2)cc1O")
0.995
>>> observed_result("O=C1C[C@@H](c2ccccc2)Oc2cc(O)cc(O)c21")
0.877
>>> observed_result("O=C1CC(c2ccccc2)Oc2ccccc21 (configuration not stated)")
0.971
>>> observed_result("c1ccc(CC2=NCCN2)cc1")
0.79
>>> observed_result("c1ccc(CN(CC2=NCCN2)c2ccccc2)cc1")
1.01
>>> observed_result("COc1ccc([C@@H]2CC(=O)c3c(O)cc(O)cc3O2)cc1O")
1.02
>>> observed_result("O=C(/C=C/C=C/c1ccc2c(c1)OCO2)N1CCCCC1")
0.92
>>> observed_result("CCCCCC(C)N (configuration not stated)")
0.989
>>> observed_result("COc1ccc(C(=O)c2ccccc2O)c(O)c1")
0.899
>>> observed_result("CC(=O)O[C@@](C)(CCC=C(C)C)C1CC=C(C)CC1 (some centres not stated)")
0.996
>>> observed_result("CC(C(=O)O)c1ccc2c(c1)[nH]c1ccc(Cl)cc12 (configuration not stated)")
0.91

----------
Readings of normalized growth for the listed compounds
test: chemical genetic growth profiling, strain panel (AID 1159580);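 further: tested at 20 µM; growth read once vehicle control cultures reached saturation at 30 °C; 1 = growth at the plate median or of vehicle wells; lower values mean less growth of the strain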; settings: S. cerevisiae deletion strains, growth OD, locus YOR136W, strain idh2, active compounds read low
Screen size: about 5,500 compounds; about 2,000 (36%) were called active. Another 18% or so got no clear call; they are omitted. The list shows a part of the results.
Measured metric: normalized growth

>>> observed_result("COC1C(O)C(O)C(O)[C@@H](O)C1O (stereo partly specified)")
1.03
>>> observed_result("N#Cc1c(Cl)c(Cl)c(Cl)c(C#N)c1Cl")
0.977
>>> observed_result("O=C(O)c1ccccc1OP(=O)(O)O")
0.994
>>> observed_result("COc1ccc2c(c1)[C@@]1(C)CCC(=O)C[C@H]1CC2")
0.98
>>> observed_result("Cc1ccc2c(c1)CC[C@H]1CC(=O)CC[C@]21C")
0.993
>>> observed_result("OCC(O)Cc1ccc2c(c1)OCO2 (stereo unspecified)")
0.993
>>> observed_result("Nc1nc2[nH]c(=O)c(=O)[nH]c2c(=O)[nH]1")
1.01
>>> observed_result("CC[C@@H](CO)NCCN[C@@H](CC)CO")
0.995
>>> observed_result("CCCCOc1ccc(OCCCN2CCOCC2)cc1")
0.962
>>> observed_result("CC(=O)O[C@]1(C(C)=O)CCC2C3C=C(C)C4=CC(=O)CCC4(C)C3CCC21C (stereo partly specified)")
0.971
>>> observed_result("CC1(C)C2CC[C@]3(C)C(C(=O)C=C4[C@@H]5C[C@@](C)(C(=O)O)CC[C@]5(C)CC[C@]43C)[C@@]2(C)CC[C@@H]1O (stereo partly specified)")
1.01
>>> observed_result("C=CC1=C(C(=O)O)N2C(=O)[C@@H](NC(=O)/C(=N/O)c3csc(N)n3)[C@H]2SC1")
0.988
>>> observed_result("CCC(C(=O)O)c1ccccc1 (stereo unspecified)")
1.01
>>> observed_result("C[N+](C)(C)CCOP(=O)([O-])OP(=O)(O)OC[C@H]1OC(n2ccc(N)nc2=O)[C@H](O)[C@@H]1O (stereo partly specified)")
1
>>> observed_result("COc1ccc(CC2c3cc(OC)c(OC)cc3CCN2C)cc1OC (stereo unspecified)")
0.994
>>> observed_result("CC(C)[N+](C)(CCOC(=O)C1c2ccccc2Oc2ccccc21)C(C)C")
1
>>> observed_result("COc1cc2c(cc1OC)C(=O)C(CC1CCN(Cc3ccccc3)CC1)C2 (stereo unspecified)")
0.984
>>> observed_result("CCc1cccc(C)c1N(C(=O)CCl)C(C)COC (stereo unspecified)")
1.01
>>> observed_result("NC(N)=NOCC[C@H](N)C(=O)O")
0.988
>>> observed_result("CCC(C(N)=O)c1ccccc1 (stereo unspecified)")
1
>>> observed_result("CCc1nc(N)nc(N)c1-c1ccc(Cl)cc1")
1.01
>>> observed_result("CC(C)=CCc1c(O)cc(C)oc1=O")
0.972
>>> observed_result("NC(=O)c1ncn([C@@H]2O[C@H](CO)[C@@H](O)[C@H]2O)c1O")
1.02
>>> observed_result("CCCCCCCCCCCCC[N+](C)(C)Cc1ccccc1")
0.0728
>>> observed_result("CC(C)CC1C(=O)N2CCC[C@H]2C2(O)O[C@](NC(=O)C3C=C4c5cccc6[nH]c(Br)c(c56)C[C@H]4N(C)C3)(C(C)C)C(=O)N12 (stereo partly specified)")
0.987
>>> observed_result("CC1(C)C2CC[C@]3(C)C(C(=O)C=C4[C@H]5C[C@@](C)(C(=O)O)CC[C@]5(C)CC[C@]43C)[C@@]2(C)CC[C@@H]1O (stereo partly specified)")
1.01
>>> observed_result("COC(=O)COc1ccc(Cl)cc1Cl")
1.02
>>> observed_result("OCCN(CCO)c1nc(N2CCCCC2)c2nc(N(CCO)CCO)nc(N3CCCCC3)c2n1")
1
>>> observed_result("CC(=O)O[C@]1(C(C)=O)CCC2C3C[C@H](C)C4=CC(=O)CC[C@]4(C)C3CC[C@@]21C (stereo partly specified)")
1
>>> observed_result("COc1ccc2c(c1)OC[C@@H](Cc1ccc(OC)c(OC)c1)[C@@H]2O")
0.991
>>> observed_result("CCCCCC(=O)O[C@]1(C(C)=O)CCC2C3CCC4=CC(=O)CC[C@]4(C)C3CC[C@@]21C (stereo partly specified)")
1.02
>>> observed_result("CCCCOc1ccc(C(=O)CCN2CCCCC2)cc1")
0.0967
>>> observed_result("C[CH2][Hg][S]c1ccccc1C(=O)O")
0.0686
>>> observed_result("OC(CCN1CCCCC1)(c1ccccc1)c1ccccc1")
1.01
>>> observed_result("CCc1ccc(CCOc2ccc(CC3SC(=O)NC3=O)cc2)nc1 (stereo unspecified)")
1
>>> observed_result("CCCCCC(C)N (stereo unspecified)")
0.988
